TESTED TARGET: Arginase-2, mitochondrial (Homo sapiens) (UniProt P78540)
Sequence (P78540 whole entry): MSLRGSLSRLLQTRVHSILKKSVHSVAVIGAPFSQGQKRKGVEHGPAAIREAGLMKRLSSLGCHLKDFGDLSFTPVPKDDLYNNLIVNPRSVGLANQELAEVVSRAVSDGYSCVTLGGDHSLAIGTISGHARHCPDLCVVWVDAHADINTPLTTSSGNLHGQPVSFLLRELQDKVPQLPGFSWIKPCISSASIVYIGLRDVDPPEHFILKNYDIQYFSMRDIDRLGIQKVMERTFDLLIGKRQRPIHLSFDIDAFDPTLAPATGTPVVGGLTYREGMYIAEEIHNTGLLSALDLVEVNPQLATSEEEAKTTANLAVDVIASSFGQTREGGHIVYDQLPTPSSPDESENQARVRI
EXPERIMENT: in vitro enzyme assay to detect the production of urea directly proportional to the activity of Arginase II; further: in the data most compounds retested in dose-response had high values
Format: functional
Design: scale not given: direction of the effect not stated beside the values
EXPERIMENTAL PARAMETERS: 30 µM
Exercise: for every item that follows, state its recorded Percent Effect.
Quick reminder: number only, in %, skip the unit.

Q: Could you share which Percent Effect value was measured for "CN(Cc1ccco1)[C@@H]1CN(Cc2cnn(C)c2)[C@@H]2CCCO[C@H]12" ?
Ans: 2.7

Q: Please give the result for O=C(Cn1nc2c(cc1=O)CCCC2)NC(C(=O)O)c1ccccc1 (stereo unspecified) too.
Ans: -2.7

Q: "COc1ccc(C(=O)N2C[C@@H](C(=O)O)[C@H](c3ccccc3)C2)c(C)c1" ?
Ans: -7.03

Q: Now consider "CC(C)CN1CCC(NC(=O)c2ccc(F)cc2Cl)CC1" .
Ans: 5.95

Q: Same question, Cc1ccc(CCNC(=O)N2CCC(Cc3cnn(C)c3)C2)cn1 (stereo unspecified) this time
Ans: 7.03

Q: How about this compound: OC(CN(Cc1ccccc1)Cc1ccon1)c1cccs1 (stereo unspecified)
Ans: 8.11

====

Test system: Trypanosoma cruzi
EXPERIMENT: Trypanosoma cruzi phosphomannomutase and mannose-1-phosphate guanylyltransferase assay
Assay type: functional
Parameters: scale not given: direction of the effect not stated beside the values
EXPERIMENTAL PARAMETERS: 10 µM
Could you please report measured Percent Effect for the items listed next?
// return the numeric value with its unit appended

Q: Which Percent Effect value is on record for "CCNc1cc2c(nn1)CCN(C(=O)c1cc3nc(C)ccc3o1)C2" ?
Ans: 9.04%

Q: Item: Cc1ncoc1C(=O)N1CCn2c(COCC3CC3)cnc2C1C (stereo not given)
Ans: 0.487%

Q: // repeat for COc1cccc(-n2nnc(C(=O)N3CCN(C)CC3C)c2C)c1 (stereo not given) and report
Ans: 6.1%

Q: For "O=C(c1ccc2c(c1)OCO2)N1CCN(c2cnccn2)CC1" then?
Ans: -1.6%

Q: Similarly, Cc1cnn(CC2CCCCN2C(=O)c2cc(Cl)c[nH]2)c1 (stereo not given) ?
Ans: 6.53%

Q: Then Cc1cnc(CN2CCCC2c2noc(C)n2)cn1 (stereo not given) ?
Ans: 0.602%

Q: Then this compound: "O=C(NC[C@]1(O)CN(Cc2ccccc2F)C[C@H]1O)c1ccccn1"
Ans: -2.37%

Q: Follow-up entry: Cn1ncc2c1NC(=O)CC2c1ccc(O)cc1 (stereo not given)
Ans: -8.63%

Q: Next up: "Cc1nn(C)c(N(C)C)c1CNCCCN(C)S(C)(=O)=O"
Ans: -3.47%

Q: Let us now turn to Cc1ncc(S(C)(=O)=O)c(C2CCCNC2)n1 (stereo not given)
Ans: -2.81%

Q: Request: CCc1cc(O)nc(C2CCCN2C(=O)c2cccnc2)n1 (stereo not given)
Ans: -6.71%

Q: Likewise for OC(COc1ccc(F)cc1)CN1CCC(Cn2cccn2)CC1 (stereo not given) ?
Ans: 0.933%

Q: // query: "Cc1ccccc1-c1cncc(C2CCN(C(C)C)CC2)n1"
Ans: 3.55%

Q: Note, next up: CC(C)(C)c1n[nH]c(C2CN(C(=O)c3ccsc3)CCO2)n1 (stereo not given)
Ans: 0.657%

Q: Item: CN(Cc1nnc(C2CC2)o1)C1CCN(CCCc2cnn(C)c2)C1 (stereo not given)
Ans: -2.61%
